- Assay text: Half life in mouse microsomes
- Type: ADME, Microsome
Outcome measure: half-life (min)
Report the value in min with no unit label.

[[record]]
compound = "COc1cc2c(c(OC)c1OC)C(c1cc(Cl)ccc1F)NC(=O)N2 (racemic)"
observed_result = 20


Continue with the next compound.
Looking up COc1cc2c(c(OC)c1OC)C(c1cc(Cl)ccc1F)OCC(=O)N2 (configuration not stated) , I found its half-life recorded as 3

* * *

- Assay text: Aqueous solubility of the compound at pH 7.4
- Assay type: physicochemical
- Applied conditions: aqueous medium
Each item that follows carries a reported solubility.

Looking up COc1cc2c(c(OC)c1OC)C(c1cc(Br)ccc1F)CC(=O)N2 (stereo not drawn) , I found its solubility recorded as < 1 µM

Looking up COc1cc2c(c(OC)c1OC)C(c1cc(Cl)ccc1F)OCC(=O)N2 (stereo not drawn) , I found its solubility recorded as 58 µM

Looking up COc1cc2c(c(OC)c1OC)C(c1cc(Cl)ccc1F)NC(=O)N2 (racemic) , I found its solubility recorded as 91 µM
